TARGET_OF_ASSAY: T1, deglycosylated RNF43 (human, UniProt Q68DV7 24-197, biotin; deglycosylated with Deglycosylation Mix II (glycosylation sites N62 and N92))
T1 chain: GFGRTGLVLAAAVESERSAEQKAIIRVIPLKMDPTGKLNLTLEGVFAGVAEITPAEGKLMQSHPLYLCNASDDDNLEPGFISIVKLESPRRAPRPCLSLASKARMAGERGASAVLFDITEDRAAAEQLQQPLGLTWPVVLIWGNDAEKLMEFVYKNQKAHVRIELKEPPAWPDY
ASSAY_EXPLANATION: SPR; deglycosylated RNF43
MEASURED_PROPERTY: pKd
pKd is a log-scale quantity: -log10 of the concentration expressed in molar.

Give pKd for the following binder: EQCTSTQDLCHDYSHVCCWPLDCRWAVKYQWFWDCIG (designed binder) [GUR-1.6.12.2]
8.55

The values you see were collected from paper PMC12464775.
